Each recorded value in this set is attributed to PubChem BioAssay.

# tested_target: Torsin-1A-interacting protein 1 (Homo sapiens) (UniProt Q5JTV8)
# Sequence (Q5JTV8 whole entry, looked up): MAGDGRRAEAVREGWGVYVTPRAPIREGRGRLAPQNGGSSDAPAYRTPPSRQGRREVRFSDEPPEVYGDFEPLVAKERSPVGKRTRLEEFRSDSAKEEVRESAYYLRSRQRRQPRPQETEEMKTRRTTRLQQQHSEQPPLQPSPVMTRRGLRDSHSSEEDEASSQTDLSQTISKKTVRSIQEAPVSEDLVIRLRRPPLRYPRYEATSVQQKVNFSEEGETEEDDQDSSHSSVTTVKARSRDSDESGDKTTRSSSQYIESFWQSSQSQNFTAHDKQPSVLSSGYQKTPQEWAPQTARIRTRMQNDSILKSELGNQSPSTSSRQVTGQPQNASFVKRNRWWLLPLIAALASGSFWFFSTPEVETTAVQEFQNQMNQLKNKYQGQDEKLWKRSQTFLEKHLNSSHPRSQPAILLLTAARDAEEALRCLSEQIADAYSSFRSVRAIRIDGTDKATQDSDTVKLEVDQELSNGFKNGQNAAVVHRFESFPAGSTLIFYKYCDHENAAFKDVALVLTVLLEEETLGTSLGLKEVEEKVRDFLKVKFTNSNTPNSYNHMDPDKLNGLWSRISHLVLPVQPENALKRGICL
# experiment_summary: compound microarray binding of lysate hLAP1 – cell lysate, small-molecule microarray, COS7 lysate, 635/667 nm fluorescence, primary screen (AID 1116)
# run_parameters: 635 nm fluorescence, higher = more signal
measure: composite z-score
# print the numeric value only

Q: Bench note: what composite z-score did COCCCNC(=O)[C@@]1(C)c2ccccc2C(=O)N(Cc2ccccc2)[C@H]1c1ccc(CO)cc1 show?
Result: 1.64

Q: Entry O=C(NCc1ccccc1)[C@@H]1c2ccccc2C(=O)N(C2CCCCC2)[C@H]1c1ccc(CO)cc1 please
Result: 0.089

Q: Entry C=CCC(OC(C)=O)[C@@H]1[C@@H](N(Cc2cc3ccccc3o2)C(=O)c2cccc3ccccc23)c2cc(OCCCO)ccc2N1C(=O)Cc1ccc(OC)cc1 (some centres not stated) please
Result: 0.153

Q: Entry NC(=O)NCC#Cc1ccc2c(c1)[C@]1(C(=O)N2)[C@H](C(=O)NC[C@H](O)c2ccccc2)[C@H]2C(=O)O[C@H](c3ccccc3)[C@H](c3ccccc3)N2[C@@H]1c1ccccc1OCCO please
Result: 0.433

Q: Entry Cc1ccc(S[C@]2(C(=O)NCC(F)(F)F)CC(=O)N(C3Cc4ccccc4C3)[C@@H]2c2ccc(CO)cc2I)cc1 please
Result: 0.265

Q: Entry [N-]=[N+]=Nc1ccccc1[C@@H]1OC(c2ccc(OCCCO)cc2)=N[C@]1(CCS(=O)(=O)c1ccccc1)C(=O)N1CCCCC1 please
Result: 1.79

Q: Entry Cc1ccc(S[C@]2(C(=O)NCc3ccccc3)CC(=O)N(Cc3cc(C(F)(F)F)cc(C(F)(F)F)c3)[C@@H]2c2ccc(CO)cc2)cc1 please
Result: -0.712

====

# experiment_summary: plasmodial surface anion channel blockers, osmotic lysis – cell-based, P. falciparum Indochina, OD700, 1 h, primary screen (AID 1154)
# run_parameters: P. falciparum Indochina infected RBC osmotic lysis, called active from +8 up or from −8 down
The source made the active and inactive calls.
Hello, when you answer, please use one of the following outcomes: active, inactive

Q: Fill in: this test's call for CCOC(=O)C1=CC[C@@H](c2ccccc2)N(S(=O)(=O)c2ccc(C)cc2)[C@H]1c1ccc(C#N)cc1 is ___
Result: inactive

Q: Entry C=CCN1Cc2ccccc2C[C@@]2(COC(c3ccc(OCCCO)cc3)=N2)C1=O please
Result: active

Q: Entry Cc1c(NC(=O)/C(C#N)=C/C=C/c2ccccc2)c(=O)n(-c2ccccc2)n1C please
Result: inactive

Q: Entry COc1ccc(C(=O)Nc2cccc(CN3C(=O)[C@@]4(O[C@@H](CC(=O)N5Cc6ccccc6C[C@H]5CO)[C@H]([Si](C)(C)c5ccc(OC)cc5)[C@H]4C)c4ccccc43)c2)cc1 please
Result: inactive

Q: Entry O=C(NCCN1CCOCC1)[C@@H]1c2ccccc2C(=O)N(Cc2cc(F)cc(C(F)(F)F)c2)[C@H]1c1ccc(CO)cc1 please
Result: inactive

More entries:
Q: Fill in: this test's call for C[C@]1(C(=O)NCC(F)(F)F)c2ccccc2C(=O)N(Cc2cc(F)cc(C(F)(F)F)c2)[C@H]1c1ccc(CO)cc1 is ___
Result: inactive

Q: Entry COc1ccc([Si](C)(C)[C@H]2[C@H](CC(=O)N3CCC[C@H]3CO)O[C@@]3(C(=O)N(c4ccccc4)c4ccccc43)[C@@H]2C)cc1 please
Result: inactive

Q: Entry COCCCNC(=O)[C@]1(Cc2ccccc2N=[N+]=[N-])N=C(c2ccc(OCCCO)cc2)O[C@@H]1c1ccccc1CN=[N+]=[N-] please
Result: active

Q: Entry O=C1OCC=C[C@H]2OC34C=CCN(Cc5ccccc5)C(=O)[C@H]3N(CCCO)C(=O)[C@@H]4[C@@H]12 (stereo partly drawn) please
Result: inactive

====

# experiment_summary: resazurin metabolic signal in HepG2 cells – cell-based, resazurin fluorescence, 24 h, PK04 Diversity Set, profiling panel (AID 1172); also: test concentration not given here
# run_parameters: HepG2 viability, higher = more signal
measure: z-score

Worked cases, z-score given:
Q: Bench note: what z-score did [N-]=[N+]=Nc1ccccc1[C@@H]1OC(c2ccc(OCCCO)cc2)=N[C@]1(CCS(=O)(=O)c1ccccc1)C(=O)O show?
Result: 0.97

Q: Entry NC(=O)NCC#Cc1ccc2c(c1)[C@]1(C(=O)N2)[C@H](c2ccc(O)cc2)N2[C@H](c3ccccc3)[C@H](c3ccccc3)OC(=O)[C@H]2[C@@H]1C(=O)N1CCN(c2ncccn2)CC1 please
Result: -0.271

Q: Entry Cc1ccc(C(C)CC(O)C2C=CC3C(=O)NC(=O)C3N2Nc2ccccn2)o1 (centres undefined) please
Result: -0.668

Q: Entry OCCCc1cc[n+](Cc2cccc(OC(F)(F)F)c2)cc1 please
Result: 0.887

Q: Entry CC1CC/C=C\[C@H]2OC34C=CCN(c5ccc6ccccc6c5)C(=O)[C@H]3N(CCCCCO)C(=O)[C@@H]4C2C(=O)O1 (some centres undefined) please
Result: -0.304

Q: Entry C=CCC(OC(C)=O)[C@@H]1[C@@H](N(Cc2ccc(-c3ccccc3)cc2)C(=O)c2ccc(C)cc2)c2cc(OCCCO)ccc2N1C(=O)Cc1ccc(OC)cc1 (some centres undefined) please
Result: 0.989

Q: Entry CC1(C)C(=O)C(c2ccccc2)=C2CN3C(=O)N(CCc4ccccc4)C(=O)C3(Cc3ccccc3)C=C21 (centres undefined) please
Result: -0.752

Q: Entry CCOC(=O)C[C@H]1[C@H](OC(=O)c2ccccc2-c2ccccc2)[C@@H](NC(=O)c2ccc(-c3ccccc3)cc2)c2cc(OCCCO)ccc2N1C(=O)c1ccccc1 please
Result: -0.607

More entries:
Q: Bench note: what z-score did NC(=O)NCC#Cc1ccc2c(c1)[C@]1(C(=O)N2)[C@H](C(=O)NC[C@H](O)c2ccccc2)[C@H]2C(=O)O[C@H](c3ccccc3)[C@H](c3ccccc3)N2[C@@H]1c1ccccc1OCCO show?
Result: 0.217

Q: Entry CCOC(=O)C1=CC[C@@H](c2ccccc2)N(S(=O)(=O)c2ccc(C)cc2)[C@H]1c1ccc(C#N)cc1 please
Result: 0.162

====

# experiment_summary: inhibition of PAO1 biofilm formation – strain PAO1, LB-PBS medium, absorbance 600 nm, primary screen (AID 1176); also: test concentration not given here
# run_parameters: P. aeruginosa PAO1 growth/biofilm, A600, 12 h; higher = more signal
measure: z-score
# print the numeric value only

Worked cases, z-score given:
Q: Bench note: what z-score did COC(=O)[C@@]1(Cc2ccccc2)[C@H]2c3cc(C(=O)N(C)C)n(Cc4cc(F)c(F)c(F)c4)c3C[C@H]2CN1C(=O)c1ccccc1 show?
Result: -0.0019

Q: Entry O=C(NCC(O)CO)[C@]1(CCS(=O)(=O)c2ccccc2)N=C(c2ccc(OCCCO)cc2)O[C@@H]1c1ccccc1 (stereo not given in full) please
Result: 0.193

Q: Entry C=C(C(=O)CC[C@@H](OC(=O)c1cccnc1)c1ccc(OCCO)cc1)C(C)C please
Result: 0.907

Q: Entry C=CC[C@]1(C(=O)NCCN2CCOCC2)N=C(c2ccc(OCCCO)cc2)O[C@H]1c1ccccc1N=[N+]=[N-] please
Result: -0.251

Q: Entry O=C1O[C@H](c2ccccc2)[C@H](c2ccccc2)N2[C@H]1[C@@H](C(=O)Nc1nc3ccccc3s1)[C@]1(C(=O)Nc3ccc(C#CC4=CCCCC4)cc31)[C@H]2c1ccc(OCCO)cc1 please
Result: 3.01

More entries:
Q: Bench note: what z-score did O=C1c2ccccc2[C@](Cc2ccccc2I)(C(=O)O)[C@H](c2ccc(CO)cc2)N1Cc1ccccc1C(F)(F)F show?
Result: -0.0528

Q: Entry OCCCc1cc[n+](Cc2cccc(OC(F)(F)F)c2)cc1 please
Result: 0.0898

Q: Entry [N-]=[N+]=Nc1ccccc1[C@@H]1OC(c2ccc(OCCCO)cc2)=N[C@]1(CCS(=O)(=O)c1ccccc1)C(=O)N1CCCCC1 please
Result: 0.687

Q: Entry COCCOC(=O)N1C(=O)[C@@]2(c3cc(C#CC4(O)CCCCCC4)ccc31)[C@H](c1ccc(O)cc1)N1[C@H](c3ccccc3)[C@H](c3ccccc3)OC(=O)[C@H]1[C@@H]2C(=O)N1CCc2cc(OC)c(OC)cc2C1 please
Result: -0.0242

Q: Entry C=C(COC)/C(=C/C[C@H](OC(C)=O)c1ccccc1OCCO)c1cnc2ccccc2c1 please
Result: 1.57

Q: Entry O=C1[C@H]2C=C(Br)[C@H](C[C@@H]2OCCOCCO)[C@@]12CO2 please
Result: 0.379

Q: Entry O=C1O[C@@H](c2ccccc2)[C@@H](c2ccccc2)N2[C@@H](c3ccc(O)cc3)[C@]3(C(=O)Nc4ccc(C#CCCO)cc43)[C@@H](C(=O)O)[C@H]12 please
Result: 0.201

Q: Entry O=C1C2C=CC(C(O)C3CC=CCC3)N(n3cnnc3)C2C(=O)N1Cc1ccccc1 (stereo not given) please
Result: 0.216

Q: Entry CCOC(=O)C=Cc1cccc(OC)c1O please
Result: -2.06

Q: Entry COC(=O)C(CC#Cc1ccc2c(c1)[C@]1(C(=O)N2)[C@H](C(=O)N2CCCCCCC2)[C@H]2C(=O)O[C@H](c3ccccc3)[C@H](c3ccccc3)N2[C@@H]1c1ccccc1OCCO)C(=O)OC please
Result: 1.22
